# experiment_notes: chemical genetic growth profiling, strain panel (AID 1159580);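 further: tested at 20 µM; growth read once vehicle control cultures reached saturation at 30 °C; lower values mean less growth of the strain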
# settings: S. cerevisiae deletion strains, growth OD, locus YJL168C, strain set2
Among all 5,500 compounds or so, about 2,000 (36%) were called active. Not shown: some 18% with an inconclusive outcome. No stated cut-off is given here; in the data, active means normalized growth mostly below about 0.91 (no sharp cut-off); inconclusive means no clear call, values can overlap the other calls; inactive means mostly above about 0.92. Some of the results follow. Where a SMILES comes first, the peptide text is derived from it. Bridges are numbered along the chain shown (N, C = ends). [ ]: non-standard residue; d: D form. The star is where a group is joined. Octanoyl(6-Me) = CCC(C)CCCCC(=O)*; Dab = NCC[CH](N)C(=O)O
Outcomes you can answer with include only these: active, inactive

molecule: CC[C@@H](CO)NC(=O)[C@@H]1C=C2c3cccc4[nH]cc(c34)C[C@H]2N(C)C1
cat: inactive

molecule: CC(=O)O[C@H]1CC[C@]2(C)C3CC[C@@]4(C)C(CC5O[C@@]6(CCC(C)CO6)[C@@H](C)C54)C3CC[C@@H]2C1 (some centres undefined)
cat: inactive

molecule: CCC(C)CCCCC(=O)NC(CCN)C(=O)NC(C(=O)NC(CCN)C(=O)NC1CCNC(=O)C(C(C)O)NC(=O)C(CCN)NC(=O)C(CCN)NC(=O)C(CC(C)C)NC(=O)C(Cc2ccccc2)NC(=O)C(CCN)NC1=O)C(C)O (centres undefined) ({Octanoyl(6-Me)}-[Dab]T[Dab][Dab][Dab]FL[Dab][Dab]T; lactam 4-C; configuration not given here)
cat: inactive

molecule: NC1C[C@H]1c1ccccc1 (some centres undefined)
cat: inactive

molecule: CC(=O)CC1CCCCN1 (centres undefined)
cat: inactive

molecule: NC(N)=NC(N)=Nc1ccccc1
cat: inactive

molecule: CC(=O)O[C@@H]1CC[C@]2(C)C3CC[C@]4(C)C(=O)CCC4C3CC[C@H]2C1 (some centres undefined)
cat: inactive

molecule: O=c1[nH]cnc2c1ncn2C1O[C@H](CO)[C@@H](O)[C@H]1O (some centres undefined)
cat: inactive

## Task Status in this test for NC[C@H]1O[C@H](O[C@H]2[C@H](O)[C@@H](O[C@H]3O[C@H](CO)[C@@H](O)[C@H](N)[C@H]3O)[C@H](N)C[C@@H]2N)[C@H](N)C[C@@H]1O ?
## Result inactive

## Task Status in this test for CCc1cccc2c3c([nH]c12)C(CC)(CC(=O)O)OCC3 (centres undefined) ?
## Result inactive

## Task Status in this test for CC(=O)[O][Hg][c]1ccccc1 ?
## Result active

---

# experiment_notes: chemical genetic growth profiling, strain panel (AID 1159580);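 further: tested at 20 µM; growth read once vehicle control cultures reached saturation at 30 °C; lower values mean less growth of the strain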
# settings: S. cerevisiae deletion strains, growth OD, locus YNL322C, strain KRE1 (second series), active compounds read low
The whole screen tested about 5,500 compounds, of which about 2,000 (36%) were called active. Another 18% or so got no clear call; they are omitted. The list shows a part of the results.
Fulfilled if normalized growth is below 1. Not fulfilled if not; exact matches included in Not fulfilled.

Answered examples (4):
compound: CC(=O)Oc1ccccc1C(=O)O
cat: Fulfilled

compound: CC(=O)[O][Hg][c]1ccccc1
cat: Fulfilled

compound: Cc1onc(-c2ccccc2)c1C(=O)NC1C(=O)N2[C@@H]1SC(C)(C)[C@@H]2C(=O)O (stereo partly specified)
cat: Not fulfilled

compound: CC1(C)S[C@@H]2[C@H](NC(=O)Cc3ccccc3)C(=O)N2[C@H]1C(=O)O
cat: Not fulfilled

## Task is_below(normalized growth, 1) for CC(NCCC(c1ccccc1)c1ccccc1)c1ccccc1 (stereo unspecified) ?
## Result Not fulfilled

Attribution: PubChem BioAssay AID1159580
